# assayedTarget: human URAT1 h-V26T (Homo sapiens, UniProt Q96S37, V26T)
# Sequence (Q96S37 1-553 V26T): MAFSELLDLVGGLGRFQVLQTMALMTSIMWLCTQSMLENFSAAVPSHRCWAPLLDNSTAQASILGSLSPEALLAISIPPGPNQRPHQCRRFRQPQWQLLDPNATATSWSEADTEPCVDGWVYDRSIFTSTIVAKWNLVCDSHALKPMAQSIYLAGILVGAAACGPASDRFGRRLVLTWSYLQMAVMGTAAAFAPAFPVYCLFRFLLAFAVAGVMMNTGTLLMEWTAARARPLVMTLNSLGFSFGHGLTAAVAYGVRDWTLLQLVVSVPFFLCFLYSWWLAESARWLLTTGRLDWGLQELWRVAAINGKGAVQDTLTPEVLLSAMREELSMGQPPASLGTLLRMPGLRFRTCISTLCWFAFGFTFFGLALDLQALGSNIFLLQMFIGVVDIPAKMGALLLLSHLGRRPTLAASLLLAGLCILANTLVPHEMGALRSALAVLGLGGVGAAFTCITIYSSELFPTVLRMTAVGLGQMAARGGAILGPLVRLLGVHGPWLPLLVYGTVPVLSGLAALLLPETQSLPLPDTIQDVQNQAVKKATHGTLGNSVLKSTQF
# measurementProtocol: URAT1 activity assay, h-V26T
# assayConditions: TM1 point mutant, read-out: Verinurad affinity (IC50)
endpointLabel: pIC50
pIC50 (log units): -log10 of the concentration in mol/L.

Param item = CC(C)(Sc1ccncc1-c1ccc(C#N)c2ccccc12)C(=O)O ; retrieve measured pIC50.
7.85
